target: GABA-A receptor; alpha-2/beta-3/gamma-2 (Homo sapiens) (UniProt P18507+P28472+P47869); assay: Maximum percent change compared to GABA EC20 against GABA-A alpha-2-beta-3-gamma-2 receptor; format: functional
parameter: Efficacy (%)
Please state the figure in %; there is no need to write the unit.

input_smiles | units_text | Efficacy
c1ccc(-c2nnc3c4c(c(OCc5ccccn5)nn23)C2CCC4CC2)cc1 | % | 23

Problem: Quick one: Efficacy for c1ccc(-c2nnc3c4c(c(OCc5ccccn5)nn23)CCCC4)cc1 ?
Result: 18

Problem: Quick one: Efficacy for c1ccc(-c2nnc3c4c(c(OCc5ccccn5)nn23)CCCCC4)cc1 ?
Result: 27

Problem: Quick one: Efficacy for c1ccc(-c2nnc3c4ccccc4c(OCc4ccccn4)nn23)cc1 ?
Result: -5

====

biological target: GABA-A receptor; alpha-2/beta-3/gamma-2 (Homo sapiens, UniProt P18507+P28472+P47869); assay: Binding affinity for human GABA-A receptor alpha-2-beta-3-gamma-2 subunits in L(tk-) cells
Sequence (P18507 whole entry): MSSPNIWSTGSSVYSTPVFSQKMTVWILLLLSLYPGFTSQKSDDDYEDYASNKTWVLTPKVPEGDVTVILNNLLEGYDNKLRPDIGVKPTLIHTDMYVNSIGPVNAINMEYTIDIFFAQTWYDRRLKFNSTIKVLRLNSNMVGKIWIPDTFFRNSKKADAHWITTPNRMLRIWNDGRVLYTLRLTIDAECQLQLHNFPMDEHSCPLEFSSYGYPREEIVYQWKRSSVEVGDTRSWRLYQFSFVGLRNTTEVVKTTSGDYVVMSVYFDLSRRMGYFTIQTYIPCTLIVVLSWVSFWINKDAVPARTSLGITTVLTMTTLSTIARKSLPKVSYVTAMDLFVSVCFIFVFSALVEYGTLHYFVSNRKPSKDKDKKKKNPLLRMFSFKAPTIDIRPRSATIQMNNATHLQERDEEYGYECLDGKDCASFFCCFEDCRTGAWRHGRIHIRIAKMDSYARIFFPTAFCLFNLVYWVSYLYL
Sequence (P28472 whole entry): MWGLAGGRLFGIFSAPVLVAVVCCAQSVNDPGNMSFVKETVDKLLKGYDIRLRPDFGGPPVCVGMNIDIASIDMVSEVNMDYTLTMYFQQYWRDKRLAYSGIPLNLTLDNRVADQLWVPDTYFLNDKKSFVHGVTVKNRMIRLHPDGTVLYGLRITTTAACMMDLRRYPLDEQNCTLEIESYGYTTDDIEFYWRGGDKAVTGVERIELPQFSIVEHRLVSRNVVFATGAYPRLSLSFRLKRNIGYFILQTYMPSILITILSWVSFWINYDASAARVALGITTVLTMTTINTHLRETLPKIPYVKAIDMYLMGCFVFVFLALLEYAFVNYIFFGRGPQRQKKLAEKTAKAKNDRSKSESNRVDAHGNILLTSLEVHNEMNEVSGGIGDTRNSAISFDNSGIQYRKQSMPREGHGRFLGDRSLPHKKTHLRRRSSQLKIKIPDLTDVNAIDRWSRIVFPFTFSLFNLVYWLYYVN
Sequence (P47869 whole entry): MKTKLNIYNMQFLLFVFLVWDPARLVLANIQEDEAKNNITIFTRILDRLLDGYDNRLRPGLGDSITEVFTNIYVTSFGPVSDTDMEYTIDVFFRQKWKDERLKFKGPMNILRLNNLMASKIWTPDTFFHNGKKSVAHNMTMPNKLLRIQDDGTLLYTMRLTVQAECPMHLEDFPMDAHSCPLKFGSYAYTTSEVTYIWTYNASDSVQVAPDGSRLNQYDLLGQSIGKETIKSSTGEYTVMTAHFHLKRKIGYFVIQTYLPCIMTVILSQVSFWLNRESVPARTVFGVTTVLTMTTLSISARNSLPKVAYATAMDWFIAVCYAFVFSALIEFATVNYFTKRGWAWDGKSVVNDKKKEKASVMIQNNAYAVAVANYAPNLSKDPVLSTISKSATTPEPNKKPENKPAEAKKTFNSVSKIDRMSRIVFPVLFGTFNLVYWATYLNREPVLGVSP
The entries below are paired with their reported Ki.
Please state the figure in nM; there is no need to write the unit.

input_smiles | study_system | Ki (nM)
Cc1ccnc(COc2nn3c(-c4ccccc4)nnc3c3ccccc23)c1 | GABA-A receptor; alpha-2/beta-3/gamma-2 (Homo sapiens, UniProt P18507+P28472+P47869) | 11
c1ccc(-c2nnc3c4ccccc4c(OCc4ccoc4)nn23)cc1 | GABA-A receptor; alpha-2/beta-3/gamma-2 (Homo sapiens, UniProt P18507+P28472+P47869) | 38

# context switch: different molecule, same Ki
Problem: Quick one: Ki for c1ccc(-c2nnc3c4ccccc4c(OCc4ccccn4)nn23)cc1 ?
Result: 1.7

====

target: GABA-A receptor; alpha-3/beta-3/gamma-2 (Homo sapiens, UniProt P18507+P28472+P34903); test: Binding affinity for human GABA-A receptor alpha-3-beta-3-gamma-2 subunits in L(tk-) cells
Sequence (P18507 whole entry): as the sequence (P18507 whole entry) above
Sequence (P28472 whole entry): as the sequence (P28472 whole entry) above
Sequence (P34903 whole entry): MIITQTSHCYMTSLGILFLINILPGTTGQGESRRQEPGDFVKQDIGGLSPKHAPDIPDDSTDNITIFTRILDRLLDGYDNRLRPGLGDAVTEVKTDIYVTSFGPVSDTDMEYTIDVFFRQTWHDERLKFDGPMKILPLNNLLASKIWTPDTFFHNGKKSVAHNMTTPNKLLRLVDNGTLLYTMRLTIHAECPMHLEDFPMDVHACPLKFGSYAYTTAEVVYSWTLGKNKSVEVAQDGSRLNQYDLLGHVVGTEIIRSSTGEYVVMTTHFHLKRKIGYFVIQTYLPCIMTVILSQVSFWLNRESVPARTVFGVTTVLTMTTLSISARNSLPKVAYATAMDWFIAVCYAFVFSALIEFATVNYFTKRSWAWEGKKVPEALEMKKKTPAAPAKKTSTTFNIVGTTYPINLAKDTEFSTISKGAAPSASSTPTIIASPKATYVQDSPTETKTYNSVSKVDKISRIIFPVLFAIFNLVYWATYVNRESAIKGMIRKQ
Rule: Ki below 40 nM gives T. Equal to or above 40 nM gives F.

molecule | group
c1ccc(-c2nnc3c4ccccc4c(OCc4ccoc4)nn23)cc1 | T
CC(Oc1nn2c(-c3ccccc3)nnc2c2ccccc12)c1ccccn1 (stereo unspecified) | F
Cc1ccc2c(OCc3ccccn3)nn3c(-c4ccccc4)nnc3c2c1 | F

Problem: is_below(Ki, 40 nM) for c1ccc(-c2nnc3c4ccccc4c(OCc4cccnc4)nn23)cc1 ?
Result: T

====

The entries below are paired with their reported Efficacy.
target: GABA-A receptor; alpha-5/beta-3/gamma-2 (Homo sapiens) (UniProt P18507+P28472+P31644); test: Maximum percent change compared to GABA EC20 against GABA-A alpha-5-beta-3-gamma-2 receptor; assay type: functional

input_smiles | study_system | parameter | result
c1ccc(-c2nnc3c4c(c(OCc5ccccn5)nn23)CCCCC4)cc1 | GABA-A receptor; alpha-5/beta-3/gamma-2 (Homo sapiens) (UniProt P18507+P28472+P31644) | Efficacy | 37%
c1ccc(-c2nnc3c4c(c(OCc5ccccn5)nn23)C2CCC4CC2)cc1 | GABA-A receptor; alpha-5/beta-3/gamma-2 (Homo sapiens) (UniProt P18507+P28472+P31644) | Efficacy | 18%
c1ccc(-c2nnc3c4c(c(OCc5ccccn5)nn23)CCCC4)cc1 | GABA-A receptor; alpha-5/beta-3/gamma-2 (Homo sapiens) (UniProt P18507+P28472+P31644) | Efficacy | 6%

Problem: Quick one: Efficacy for c1ccc(-c2nnc3c4ccccc4c(OCc4ccccn4)nn23)cc1 ?
Result: -5%
